tested on: SNB-75 CNS; assay: NCI-60 one-dose screen, 48 h; details: 10 µM unless noted
The panel holds about 83,000 compounds, 20% with a hit somewhere; the sample as a whole holds those more often. Activity calls are given as the source filed them. How the source made its calls: active means growth percent below 10; inactive means the rest.
Outcomes: class 1 (active), class 0 (inactive)

C=C(c1ccc(C(=O)O)c(F)c1)c1cc2c(cc1C)C(C)(C)C=CC2(C)C; class 0
CCN1CCN(CCOc2ccc(CNc3ccc4nc(CCC5CCCCC5)[nH]c4c3)cc2)CC1; class 0
CC(C)CCc1nc2ccc(NCc3ccc(OCCN4CCC(C)CC4)cc3)cc2[nH]1; class 0
CC(=O)/C(Br)=C/c1ccc(Br)o1; class 0
COC12C=C/C(=C(/C(=O)OCc3ccccn3)C(=O)CCCCCCCCC3(OC)C=C/C(=C(/C(=O)OCc4ccccn4)C(=O)CCCCCCCC1)O3)O2; class 1
CC(CN)[C@@H]1CC[C@]2(CO)CC[C@]3(C)[C@H](CC[C@@H]4[C@@]5(C)CCC(NCCO)C(C)(C)[C@@H]5CC[C@]43C)[C@@H]12 (some centres undefined); class 0
Nc1ncc(-c2ccc3ncnc(N4CCc5cc(F)c(Cl)cc54)c3c2)cn1; class 1
N#C/C(Sc1nc2sc3c(c2c(=O)n1Cc1ccccc1)CCCC3)=C1/SC=C(c2ccc(Cl)cc2)N1c1ccccc1; class 0
COc1ccccc1NC(=O)n1c(=O)cc(C)c2ccc(O)cc21; class 0
C[C@@H]1N=C(c2ccc(Cl)cc2Cl)Nc2nc3ccccn3c2C1=O; class 0
CC/C(=C(/c1ccc(Cl)cc1)c1ccc(OCCN2CCCC2)cc1)c1ccccc1; class 0
Cc1ccc(NC(=O)c2ccc(Nc3ncnc4c3cnn4-c3cccc(F)c3)cc2)cc1; class 0
O=c1c2cccc3c(N4CCOCC4)ccc(c32)c2nc3ccccc3n12; class 0
O=C1/C(=C/c2ccc(Br)cc2)COc2ccc(O)cc21; class 0
O=C(Nc1ccc(Oc2cccc(F)c2)c(Cl)c1)c1cnccn1; class 1
c1ccc(Cn2cc3c(c2)-c2nc(Nc4ccccc4)ncc2CC3)cc1; class 0
CC(=O)O[C@H]1C[C@@]2(C)[C@@H](C[C@@H](O)[C@H]3[C@@]4(C)CC[C@H](N5CCCC5)[C@@H](C)[C@@H]4CC[C@@]32C)/C1=C(\CCC=C(C)C)C(=O)O; class 0
Cc1ccc(Nc2cc(N)nc(N)n2)cc1; class 0
Cn1ccnc1C(=O)/C=C/c1ccc(C(=O)Nc2ccccc2F)cc1; class 0

----------
system: 786-0 renal; experiment: NCI-60 one-dose screen, 48 h (100 = growth as untreated, 0 = no growth, -100 = all killed); settings: 10 µM unless noted
About 83,000 compounds went through this panel and 20% of them were active in at least one assay; those are over-represented in the sample as a whole.
Catalogue of compounds with associated growth
metric: growth (%)

CC1=C2[C@@H](CC1)[C@]1(C)O[C@@](C(C)C)(C[C@H]1OC(=O)CO)[C@H]2OC(=O)CCCc1ccccc1; 79.2
COc1ccc(NC(=O)c2sc3nc(C)c(C(=O)c4ccccc4)cc3c2N)cc1; 96.4
[2H]C([2H])([2H])Oc1ccc(/C=C/C(=O)/C=C(O)/C=C/c2ccc(OC([2H])([2H])[2H])c(OC([2H])([2H])[2H])c2)cc1OC([2H])([2H])[2H]; 48.9
O=C(OCC(O)C(=O)NC12CC3CC(CC(C3)C1)C2)c1cccc(Br)c1 (centres undefined); 102
Cc1ccccc1NC(=O)c1sc2nc3c(cc2c1N)CCCC3; 33.7
Cc1c(N2CCCCC2)[nH]c2ccccc12; 103
COc1cc(C(=O)n2nc(NCCCc3ccccc3)c3cc(N)ccc32)cc(OC)c1OC; 96.1
C/C(=N\NC(=O)c1ccc(C(C)(C)C)cc1)c1ccc(O)cc1O; 15.3
C=C1C(=O)O[C@H]2[C@H]1CC/C(CNC(=O)/C=C/c1cc(OC)c(OC)c(OC)c1)=C\CC[C@@]1(C)O[C@@H]21; -68.5
